Measured remaining activity at 10 µM by item
targetDesc: JNK2 (Homo sapiens, UniProt P45984)
Sequence (P45984 whole entry): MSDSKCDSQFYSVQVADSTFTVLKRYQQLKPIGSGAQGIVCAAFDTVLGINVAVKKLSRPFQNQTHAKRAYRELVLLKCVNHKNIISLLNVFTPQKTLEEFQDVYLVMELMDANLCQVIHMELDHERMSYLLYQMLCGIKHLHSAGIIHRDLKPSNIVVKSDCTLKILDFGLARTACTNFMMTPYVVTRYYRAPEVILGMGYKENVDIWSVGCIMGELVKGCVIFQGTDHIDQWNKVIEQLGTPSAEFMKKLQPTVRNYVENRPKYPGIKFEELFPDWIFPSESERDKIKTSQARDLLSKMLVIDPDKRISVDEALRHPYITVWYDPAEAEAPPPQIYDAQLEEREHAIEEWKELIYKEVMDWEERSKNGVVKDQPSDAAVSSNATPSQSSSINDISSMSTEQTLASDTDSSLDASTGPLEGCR
test: Kinase panel: JNK2
Format: biochemical, human/mammalian
settings: compound at 10 μM, read-out: % of activity respect of the control
Value expressed in %; do not type the unit.

In the examples that follow, each entry is paired with its recorded remaining activity at 10 µM.
compound	targetDesc	measurementUnits	reported
C[C@H](c1ccccc1)n1c(=O)[nH]c2ncc(-c3ccccc3)nc21	JNK2 (Homo sapiens, UniProt P45984)	%	96
O=c1[nH]c2ncc(-c3ccc(F)cc3)nc2n1CC1CC1	JNK2 (Homo sapiens, UniProt P45984)	%	97
CC(c1ccccc1)n1c(=O)[nH]c2ncc(-c3ccc(F)cc3)nc21 (stereo not shown)	JNK2 (Homo sapiens, UniProt P45984)	%	104

--- query ---
What value of measured remaining activity at 10 µM is listed for `O=c1[nH]c2ncc(-c3ccc(F)cc3)nc2n1C1CCCCC1` ? 93

====

targetDesc: P38b MAPK (Homo sapiens)
Sequence (Q15759 whole entry): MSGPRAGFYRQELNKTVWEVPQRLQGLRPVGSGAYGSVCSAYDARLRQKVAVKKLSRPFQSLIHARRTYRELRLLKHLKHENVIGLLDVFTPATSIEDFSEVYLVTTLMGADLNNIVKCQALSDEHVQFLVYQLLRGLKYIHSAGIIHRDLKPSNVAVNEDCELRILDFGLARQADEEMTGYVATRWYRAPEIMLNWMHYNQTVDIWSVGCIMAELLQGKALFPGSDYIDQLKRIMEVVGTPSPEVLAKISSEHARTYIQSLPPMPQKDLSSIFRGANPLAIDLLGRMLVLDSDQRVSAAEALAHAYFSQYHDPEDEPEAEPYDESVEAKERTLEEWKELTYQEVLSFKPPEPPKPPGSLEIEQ
test: Kinase panel: P38b MAPK
Type: biochemical, human/mammalian
settings: compound at 10 μM, read-out: % of activity respect of the control
readoutLabel: remaining activity at 10 µM (%)
Value expressed in %; do not type the unit.

In the examples that follow, each entry is paired with its recorded remaining activity at 10 µM.
compound	readoutLabel	measurementUnits	reported
CC(c1ccccc1)n1c(=O)[nH]c2ncc(-c3ccc(F)cc3)nc21 (stereo not shown)	remaining activity at 10 µM	%	84
C[C@H](c1ccccc1)n1c(=O)[nH]c2ncc(-c3ccccc3)nc21	remaining activity at 10 µM	%	95
O=c1[nH]c2ncc(-c3ccc(F)cc3)nc2n1C1CCCCC1	remaining activity at 10 µM	%	122

--- query ---
What value of measured remaining activity at 10 µM is listed for `O=c1[nH]c2ncc(-c3ccc(F)cc3)nc2n1CC1CC1` ? 101

====

test: In vivo pharmacokinetics in mice
Set-up: species or system female NMRI mice
settings: mouse, whole blood, po, 20 mg kg^−1, female NMRI mice, blood
readoutLabel: half-life (h)
Value expressed in h; do not type the unit.

What value of measured half-life is listed for `O=c1[nH]c2ncc(-c3ccccc3CO)nc2n1C1CCCCC1` ? 1.7

====

targetDesc: ERK1 (Homo sapiens, UniProt P27361)
Sequence (P27361 whole entry): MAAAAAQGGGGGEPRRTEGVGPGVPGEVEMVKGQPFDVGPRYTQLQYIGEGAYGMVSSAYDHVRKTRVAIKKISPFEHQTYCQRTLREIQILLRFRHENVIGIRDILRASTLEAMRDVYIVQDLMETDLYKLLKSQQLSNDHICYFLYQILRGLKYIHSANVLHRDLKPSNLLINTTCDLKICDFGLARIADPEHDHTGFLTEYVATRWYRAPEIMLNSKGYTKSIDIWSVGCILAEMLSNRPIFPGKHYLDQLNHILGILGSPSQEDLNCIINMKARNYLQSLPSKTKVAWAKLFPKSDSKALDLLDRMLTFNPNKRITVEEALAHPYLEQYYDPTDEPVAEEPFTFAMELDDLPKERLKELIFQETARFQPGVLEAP
test: Kinase panel: ERK1
Format: biochemical, human/mammalian
settings: compound at 10 μM, read-out: % of activity respect of the control
readoutLabel: remaining activity at 10 µM (%)
Value expressed in %; do not type the unit.

What value of measured remaining activity at 10 µM is listed for `O=c1[nH]c2ncc(-c3ccc(F)cc3)nc2n1C1CCCCC1` ? 115

What value of measured remaining activity at 10 µM is listed for `C[C@H](c1ccccc1)n1c(=O)[nH]c2ncc(-c3ccccc3)nc21` ? 105

What value of measured remaining activity at 10 µM is listed for CC(c1ccccc1)n1c(=O)[nH]c2ncc(-c3ccc(F)cc3)nc21 (stereo not shown) ? 153

What value of measured remaining activity at 10 µM is listed for `O=c1[nH]c2ncc(-c3ccc(F)cc3)nc2n1CC1CC1` ? 112

====

targetDesc: RSK2 (Homo sapiens, UniProt P51812)
Sequence (P51812 whole entry): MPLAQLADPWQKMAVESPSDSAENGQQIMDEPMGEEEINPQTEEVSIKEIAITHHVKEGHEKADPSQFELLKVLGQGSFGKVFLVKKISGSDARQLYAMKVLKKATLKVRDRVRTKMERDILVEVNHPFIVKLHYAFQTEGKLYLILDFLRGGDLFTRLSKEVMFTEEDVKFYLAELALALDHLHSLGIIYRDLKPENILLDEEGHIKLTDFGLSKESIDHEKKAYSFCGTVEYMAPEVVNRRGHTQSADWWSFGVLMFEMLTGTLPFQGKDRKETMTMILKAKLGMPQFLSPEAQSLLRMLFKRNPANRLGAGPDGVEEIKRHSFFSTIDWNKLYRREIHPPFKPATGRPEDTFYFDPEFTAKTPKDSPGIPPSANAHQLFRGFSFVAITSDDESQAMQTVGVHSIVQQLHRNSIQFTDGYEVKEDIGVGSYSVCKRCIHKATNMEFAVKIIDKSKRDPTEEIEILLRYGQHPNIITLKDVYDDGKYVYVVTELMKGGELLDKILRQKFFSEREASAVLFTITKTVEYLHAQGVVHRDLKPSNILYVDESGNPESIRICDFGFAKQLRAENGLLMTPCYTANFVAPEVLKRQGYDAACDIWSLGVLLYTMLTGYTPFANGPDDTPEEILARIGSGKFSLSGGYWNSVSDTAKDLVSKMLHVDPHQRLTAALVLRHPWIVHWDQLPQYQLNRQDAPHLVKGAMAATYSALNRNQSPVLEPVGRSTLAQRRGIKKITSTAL
test: Kinase panel: RSK2
Assay type: biochemical, human/mammalian
settings: compound at 10 μM, read-out: % of activity respect of the control
Measured remaining activity at 10 µM by item
Value expressed in %; do not type the unit.

Report remaining activity at 10 µM for CC(c1ccccc1)n1c(=O)[nH]c2ncc(-c3ccc(F)cc3)nc21 (stereo not shown) tested on RSK2 (Homo sapiens, UniProt P51812). 110

Report remaining activity at 10 µM for `C[C@H](c1ccccc1)n1c(=O)[nH]c2ncc(-c3ccccc3)nc21` tested on RSK2 (Homo sapiens, UniProt P51812). 101

Report remaining activity at 10 µM for `O=c1[nH]c2ncc(-c3ccc(F)cc3)nc2n1CC1CC1` tested on RSK2 (Homo sapiens, UniProt P51812). 113

Report remaining activity at 10 µM for `O=c1[nH]c2ncc(-c3ccc(F)cc3)nc2n1C1CCCCC1` tested on RSK2 (Homo sapiens, UniProt P51812). 104
